biological target: human αVβ6 (Homo sapiens, UniProt P06756+P18564); experiment: human αVβ6 HTRF binding assay; conditions: recombinant human αVβ6 integrin, FITC-conjugated fibronectin
Sequence (P06756 31-992 limits assumed): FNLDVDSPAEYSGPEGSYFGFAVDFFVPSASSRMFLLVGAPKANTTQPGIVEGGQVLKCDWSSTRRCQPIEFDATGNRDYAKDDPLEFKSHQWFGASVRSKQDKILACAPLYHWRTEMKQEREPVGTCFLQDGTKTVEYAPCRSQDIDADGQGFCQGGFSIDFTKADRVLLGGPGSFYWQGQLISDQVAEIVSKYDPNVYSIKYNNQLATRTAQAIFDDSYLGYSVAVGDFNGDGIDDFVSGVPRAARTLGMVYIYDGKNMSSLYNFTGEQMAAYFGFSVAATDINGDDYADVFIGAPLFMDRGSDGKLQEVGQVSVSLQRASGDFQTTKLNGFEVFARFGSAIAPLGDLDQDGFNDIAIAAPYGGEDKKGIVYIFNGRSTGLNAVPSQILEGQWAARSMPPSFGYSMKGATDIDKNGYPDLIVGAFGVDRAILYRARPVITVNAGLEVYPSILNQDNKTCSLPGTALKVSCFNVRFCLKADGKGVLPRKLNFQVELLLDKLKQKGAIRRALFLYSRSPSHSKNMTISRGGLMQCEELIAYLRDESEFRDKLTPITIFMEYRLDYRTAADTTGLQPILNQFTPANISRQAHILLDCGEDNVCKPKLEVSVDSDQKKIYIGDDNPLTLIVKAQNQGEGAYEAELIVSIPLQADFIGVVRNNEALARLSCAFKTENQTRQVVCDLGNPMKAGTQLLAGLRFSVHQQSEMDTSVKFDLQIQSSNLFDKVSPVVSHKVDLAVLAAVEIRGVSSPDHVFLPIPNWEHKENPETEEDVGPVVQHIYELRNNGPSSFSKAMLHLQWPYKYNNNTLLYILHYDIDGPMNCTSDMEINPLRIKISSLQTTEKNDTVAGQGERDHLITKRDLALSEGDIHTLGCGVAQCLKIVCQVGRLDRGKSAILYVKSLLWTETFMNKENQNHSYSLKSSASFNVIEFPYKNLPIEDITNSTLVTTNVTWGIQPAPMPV
Sequence (P18564 22-707 limits assumed): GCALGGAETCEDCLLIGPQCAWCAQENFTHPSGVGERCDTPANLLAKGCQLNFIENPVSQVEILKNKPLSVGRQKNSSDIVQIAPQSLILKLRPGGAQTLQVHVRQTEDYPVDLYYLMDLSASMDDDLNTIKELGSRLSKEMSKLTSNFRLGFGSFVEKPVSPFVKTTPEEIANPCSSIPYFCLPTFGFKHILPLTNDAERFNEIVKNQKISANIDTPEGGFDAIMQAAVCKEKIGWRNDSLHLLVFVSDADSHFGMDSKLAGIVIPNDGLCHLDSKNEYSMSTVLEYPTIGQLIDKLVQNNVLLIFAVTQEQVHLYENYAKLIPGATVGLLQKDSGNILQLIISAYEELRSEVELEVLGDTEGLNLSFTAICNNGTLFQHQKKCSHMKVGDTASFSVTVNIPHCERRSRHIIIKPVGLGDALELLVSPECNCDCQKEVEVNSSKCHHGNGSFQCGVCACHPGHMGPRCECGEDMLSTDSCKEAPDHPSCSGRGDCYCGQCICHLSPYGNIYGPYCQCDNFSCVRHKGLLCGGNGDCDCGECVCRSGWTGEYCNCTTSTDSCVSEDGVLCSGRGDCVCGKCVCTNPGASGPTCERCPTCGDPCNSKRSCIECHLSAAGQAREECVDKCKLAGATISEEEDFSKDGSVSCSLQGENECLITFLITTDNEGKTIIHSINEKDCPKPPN
Classification by IC50 | ranges: lower: < 20 nM; middle: ≥ 20 nM and < 100 nM; upper: ≥ 100 nM

Use these answered entries as a reference point.
- compound: "Cc1ncc(C(CC(=O)O)n2ccc(CCCc3ccc4c(n3)NCCCC4)n2)cn1 (single isomer, unassigned) [Example 97]"
  assignedClass: "middle"
- compound: "CN(C)C(=O)c1ccc(C(CC(=O)O)c2nc(CCCc3ccc4c(n3)NCCC4)cs2)cc1 (single isomer, unassigned) [Example 137]"
  assignedClass: "upper"
- compound: "COc1ccc([C@@H](CC(=O)O)c2cnn(CCCc3ccc4c(n3)NCCC4)c2)cn1"
  assignedClass: "upper"
- compound: "Cc1cncc(C(CC(=O)O)n2ccc(CCCc3ccc4c(n3)NCCC4)n2)c1 (single isomer, unassigned) [Example 69]"
  assignedClass: "lower"

Sort COc1ccc(C(CC(=O)O)n2ncc(CCCc3ccc4c(n3)NCCC4)n2)cn1 (single isomer, unassigned) [Example 170] into one of the categories.
upper

Sort COc1ccc(C(CC(=O)O)c2ccn(CCCc3ccc4c(n3)NCCC4)n2)cn1 (stereo not shown) into one of the categories.
middle

Sort O=C(O)CC(c1cncc(N2CCCC2)c1)n1ccc(CCCc2ccc3c(n2)NCCC3)n1 (racemic) into one of the categories.
middle

Sort COc1ccc(C(CC(=O)O)c2nc(CCCc3ccc4c(n3)NCCC4)cs2)cn1 (single isomer, unassigned) [Example 15] into one of the categories.
lower

Sort COc1ccc(C(CC(=O)O)c2csc(CCCc3ccc4c(n3)NCCC4)n2)cc1F (stereo not shown) [Example 153] into one of the categories.
middle

Sort COc1ncc(C(CC(=O)O)c2nc(CCCc3ccc4c(n3)NCCC4)cs2)cn1 (single isomer, unassigned) [Example 146] into one of the categories.
upper
